systemUnderTest: T1, human GIP receptor (human) (UniProt P48546)
T1 sequence (looked up): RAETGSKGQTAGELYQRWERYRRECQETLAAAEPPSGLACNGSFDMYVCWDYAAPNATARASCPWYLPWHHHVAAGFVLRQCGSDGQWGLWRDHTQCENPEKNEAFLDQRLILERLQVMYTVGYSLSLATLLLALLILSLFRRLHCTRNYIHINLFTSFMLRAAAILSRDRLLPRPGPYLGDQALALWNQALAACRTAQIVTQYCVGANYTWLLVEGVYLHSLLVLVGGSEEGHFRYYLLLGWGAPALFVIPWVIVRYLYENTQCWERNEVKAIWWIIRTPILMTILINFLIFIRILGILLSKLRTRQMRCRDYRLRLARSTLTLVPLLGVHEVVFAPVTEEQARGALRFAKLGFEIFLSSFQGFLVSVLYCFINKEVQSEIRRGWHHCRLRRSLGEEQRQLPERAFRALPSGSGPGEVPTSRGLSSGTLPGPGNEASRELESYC
assay: cell-based or functional assay
Measured log10(cAMP Rel EC50 (in the presence of 1% HSA)) of individual entries
endpointName: log10(cAMP Rel EC50 (in the presence of 1% HSA)) (log10 of the value in nM)

- binder: "YXQGTFTSDFSKXLDKKAQXAFIEYLLAGGPSSGEPPPSSE (synthetic construct; SITE 2: note = 2-Aminoisobutyric Acid; SITE 13: note = alpha-methyl-leucine; SITE 17: note = Lysine is chemically modified through conjugation of the epsilon-amino group of the Lysine side chain with (2-[2-(2-Amino-ethoxy)-ethoxy]-acetyl)2-(gamma-Glu)-CO-(CH2 )18-CO2H; SITE 20:) [Example 5]"
  measuredValue: 1.51
- binder: "YXQGTXTSDXXIXLDXKAQXEFIEXLIEGGPSSGEPPPSGGGE (non-natural residues; Lys acylated C18 diacid; C-terminal amide; synthetic construct; SITE 2: note = 2-Aminoisobutyric Acid; SITE 6: note = alpha-methyl-2-fluoro-L-phenylalanine; SITE 10: note = 3-(4-Pyridyl)-L-alanine; SITE 11: note = alpha-methyl-L-serine; SITE 13: note = alpha-methyl-leucine; SITE 16: note = L-ornithine; SITE 17: note = Lysine is chemically mo) [Example 1181]"
  measuredValue: -0.18
- binder: "YXQGTXTSDXXIXLDXKAQXEFIEXLVEGGPSSGEPPPSGSE (non-natural residues; lipidated Lys; C-terminal amide; synthetic construct; SITE 2: note = 2-Aminoisobutyric Acid; SITE 6: note = alpha-methyl-2-fluoro-L-phenylalanine; SITE 10: note = 3-(4-Pyridyl)-L-alanine; SITE 11: note = alpha-methyl-L-serine; SITE 13: note = alpha-methyl-leucine; SITE 16: note = L-ornithine; SITE 17: note = Lysine is chemically mo) [Example 1163]"
  measuredValue: -0.14
- binder: "YXQGTFTSDXXQXLDXKAQXQFIEXLIAXGPSSGEPPPSGGGE (non-natural residues; lipidated Lys γGlu-C18 diacid; C-term amide; synthetic construct; SITE 2: note = 2-Aminoisobutyric Acid; SITE 10: note = 3-(4-Pyridyl)-L-alanine; SITE 11: note = alpha-methyl-L-serine; SITE 13: note = alpha-methyl-leucine; SITE 16: note = L-ornithine; SITE 17: note = Lysine is chemically modified through conjugation of the epsilon-amino group) [Example 1182]"
  measuredValue: 0.44
- binder: "YXQGTXTSDXXIXLDXKAQXEFIEXLIEGGPSSGEPPPSGSE (Aib, αMeF, 4Pal, αMeS, αMeL, Orn, Me4Pal, αMeY, acyl, amide; synthetic construct; SITE 2: note = 2-Aminoisobutyric Acid; SITE 6: note = alpha-methyl-L-phenylalanine; SITE 10: note = 3-(4-Pyridyl)-L-alanine; SITE 11: note = alpha-methyl-L-serine; SITE 13: note = alpha-methyl-leucine; SITE 16: note = L-ornithine; SITE 17: note = Lysine is chemically modified th) [Example 1167]"
  measuredValue: 0.09
- binder: "YXQGTFTSDFSKXLDKKAQXAFIEWLLAGGPSSGEPPPSEG (synthetic construct; SITE 2: note = 2-Aminoisobutyric Acid; SITE 13: note = alpha-methyl-leucine; SITE 17: note = Lysine is chemically modified through conjugation of the epsilon-amino group of the Lysine side chain with (2-[2-(2-Amino-ethoxy)-ethoxy]-acetyl)-(gamma-Glu)-CO-(CH2) 18-CO2H; SITE 20: n) [Example 20]"
  measuredValue: 1.63

FYI, the data here is from patent US20240270821A1.
